Provenance of the data: patent US20230071371A1

- Assayed System: T1, human GIPR (human, UniProt P48546 22-466)
- T1 sequence (looked up): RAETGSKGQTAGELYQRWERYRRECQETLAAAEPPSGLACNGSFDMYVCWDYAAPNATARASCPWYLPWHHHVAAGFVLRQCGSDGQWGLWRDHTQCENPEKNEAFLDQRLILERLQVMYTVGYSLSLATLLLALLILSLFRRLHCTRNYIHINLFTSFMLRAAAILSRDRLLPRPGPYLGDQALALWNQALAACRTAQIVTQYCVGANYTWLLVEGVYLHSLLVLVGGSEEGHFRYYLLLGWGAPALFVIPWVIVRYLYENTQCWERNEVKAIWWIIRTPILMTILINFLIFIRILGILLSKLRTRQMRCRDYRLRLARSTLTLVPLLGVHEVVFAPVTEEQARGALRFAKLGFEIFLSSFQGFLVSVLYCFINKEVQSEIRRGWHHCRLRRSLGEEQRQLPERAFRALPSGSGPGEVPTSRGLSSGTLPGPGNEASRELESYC
- Experiment Summary: cell-based or functional assay
Bridges are numbered along the chain shown (N, C = ends). Where no end group is shown, it is not given here. [ ]: non-standard residue; d: D form. staple K4 = not defined here; staple K5 = not defined here; Aib = CC(C)(N)C(=O)O
Measured Quantity: EC50 Creluc (nM)
Provide the reading as a plain figure in nM.

Assign EC50 Creluc to the following record: Y[Aib]EGTFHSDYDIYKDKQAA[Aib]KFVQWLLAGGPSSGAPPPS (linker 14-21 via staple K5; reading uncertain) [Conjugate 166] 12.6

Assign EC50 Creluc to the following record: YXEGTFTSDYSIYKDKQAALKFVAWLLAGGPSSGAPPPS (staple K4 on Lys 14, 21; Aib 2; D-Ser 8, 11; Nle 20) [Conjugate 169] 11.3

Assign EC50 Creluc to the following record: Y[Aib]EGTFTSDYSIYKDKQAA[Aib]KFVNWLLAGGPSSGAPPPS (linker 14-21 via staple K4; reading uncertain) [Conjugate 142] 0.02

Assign EC50 Creluc to the following record: Y[Aib]EGTFHSDYDIYKDKQAA[Aib]KFVQWLLAGGPSSGAPPPS (linker 14-21 via staple K4; reading uncertain) [Conjugate 165] 5.31

Assign EC50 Creluc to the following record: YXEGTFTSDYSIYKDKQAALKFVAWLLAGGPSSGAPPPS (staple K5 on Lys 14, 21; Aib 2; D-Ser 8, 11; Nle 20) [Conjugate 170] 15.7

Assign EC50 Creluc to the following record: YXEGTFTSDYSIYKDKQAAXKFVNWLLAGGPSSGAPPPS (staple K5 on Lys 14, 21; Aib 2, 20) [Conjugate 141] 0.02

Assign EC50 Creluc to the following record: YXEGTFHSDYDIYKDKQAALKFVAWLLAGGPSSGAPPPS (staple K5 on Lys 14, 21; Aib 2; Nle 20) [Conjugate 168] 303

Assign EC50 Creluc to the following record: YXEGTFHSDYDIYKDKQAALKFVAWLLAGGPSSGAPPPS (staple K4 on Lys 14, 21; Aib 2; Nle 20) [Conjugate 167] 20.4
